Recorded values, source patent US20150140169.

# Target Or System: T1, alpha-s1 casein from Bos taurus
# T1 chain: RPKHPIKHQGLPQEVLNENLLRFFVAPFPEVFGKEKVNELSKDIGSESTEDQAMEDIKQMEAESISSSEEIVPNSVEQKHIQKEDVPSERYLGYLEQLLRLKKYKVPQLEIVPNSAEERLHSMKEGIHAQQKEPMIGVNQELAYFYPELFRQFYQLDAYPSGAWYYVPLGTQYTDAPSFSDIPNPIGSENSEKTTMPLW
Observation Type: small, 16 hours, 30° C. (Volume)
Give bare numbers, in Volume.

Examples with their reported small, 16 hours, 30° C. follow.
>>> recorded_value("Chymax M (recombinant camel chymosin) (protein) GKVAREPLTSYLDSQYFGKIYIGTPPQEFTVVFDTGSSDLWVPSIYCKSNVCKNHHRFDPRKSSTFRNLGKPLSIHYGTGSMEGFLGYDTVTVSNIVDPNQTVGLSTEQPGEVFTYSEFDGILGLAYPSLASEYSVPVFDNMMDRHLVARDLFSVYMDRNGQGSMLTLGAIDPSYYTGSLHWVPVTLQQYWQFTVDSVTINGVAVACVGGCQAILDTGTSVLFGPSSDILKIQMAIGATENRYGEFDVNCGNLRSMPTVVFEINGRDYPLSPSAYTSKDQGFCTSGFQGDNNSELWILGDVFIREYYSVFDRANNRVGLAKAI")
"9e+06"
>>> recorded_value("bovine chymosin B variant #98 (A51V, K221V, S135T, A126G, S273Y, Q240E) (protein) GEVASVPLTNYLDSQYFGKIYLGTPPQEFTVLFDTGSSDFWVPSIYCKSNVCKNHQRFDPRKSSTFQNLGKPLSIHYGTGSMQGILGYDTVTVSNIVDIQQTVGLSTQEPGDVFTYAEFDGILGMGYPSLASEYTIPVFDNMMNRHLVAQDLFSVYMDRNGQESMLTLGAIDPSYYTGSLHWVPVTVQQYWQFTVDSVTISGVVVACEGGCQAILDTGTSVLVGPSSDILNIQQAIGATENQYGEFDIDCDNLSYMPTVVFEINGKMYPLTPYAYTSQDQGFCTSGFQSENHSQKWILGDVFIREYYSVFDRANNLVGLAKAI")
"1.4e+06"
>>> recorded_value("bovine chymosin B variant #71 (A51V, K221V) (protein) GEVASVPLTNYLDSQYFGKIYLGTPPQEFTVLFDTGSSDFWVPSIYCKSNVCKNHQRFDPRKSSTFQNLGKPLSIHYGTGSMQGILGYDTVTVSNIVDIQQTVGLSTQEPGDVFTYAEFDGILGMAYPSLASEYSIPVFDNMMNRHLVAQDLFSVYMDRNGQESMLTLGAIDPSYYTGSLHWVPVTVQQYWQFTVDSVTISGVVVACEGGCQAILDTGTSVLVGPSSDILNIQQAIGATQNQYGEFDIDCDNLSYMPTVVFEINGKMYPLTPSAYTSQDQGFCTSGFQSENHSQKWILGDVFIREYYSVFDRANNLVGLAKAI")
"2.4e+06"
>>> recorded_value("bovine chymosin B variant #110 (A51V, K221V, N50D, N144H, N160D, S201D, Q242E, M267E, Q280E) (protein) GEVASVPLTNYLDSQYFGKIYLGTPPQEFTVLFDTGSSDFWVPSIYCKSDVCKNHQRFDPRKSSTFQNLGKPLSIHYGTGSMQGILGYDTVTVSNIVDIQQTVGLSTQEPGDVFTYAEFDGILGMAYPSLASEYSIPVFDNMMHRHLVAQDLFSVYMDRDGQESMLTLGAIDPSYYTGSLHWVPVTVQQYWQFTVDSVTIDGVVVACEGGCQAILDTGTSVLVGPSSDILNIQQAIGATQNEYGEFDIDCDNLSYMPTVVFEINGKEYPLTPSAYTSQDEGFCTSGFQSENHSQKWILGDVFIREYYSVFDRANNLVGLAKAI")
"1.4e+06"

Consider now this further protein.
Per the record, bovine chymosin B variant #103 (A51I, K221T) (protein) GEVASVPLTNYLDSQYFGKIYLGTPPQEFTVLFDTGSSDFWVPSIYCKSNICKNHQRFDPRKSSTFQNLGKPLSIHYGTGSMQGILGYDTVTVSNIVDIQQTVGLSTQEPGDVFTYAEFDGILGMAYPSLASEYSIPVFDNMMNRHLVAQDLFSVYMDRNGQESMLTLGAIDPSYYTGSLHWVPVTVQQYWQFTVDSVTISGVVVACEGGCQAILDTGTSTLVGPSSDILNIQQAIGATQNQYGEFDIDCDNLSYMPTVVFEINGKMYPLTPSAYTSQDQGFCTSGFQSENHSQKWILGDVFIREYYSVFDRANNLVGLAKAI has small, 16 hours, 30° C. of 1.3e+06
